Value source: patent US9145398B2

Target: UniProt:P61073
Assay: Intracellular calcium mobilization assay, hCXCR4-GFP expressing 300.19 cells, CXCL12
Assay type: cell-based
Design: IC50 of intracellular calcium mobilization, CXCR4; other: CXCL12-mediated; other: 50 μM test compound; normalized Δ fluorescence (CXCR4, intracellular calcium mobilization); other: 50 μM test compound, 60 seconds pretreatm
Settings: CXCL12-mediated; read-out: IC50 of intracellular calcium mobilization, CXCR4

{"recordSmiles": "Cc1ccc(N2C(=O)/C(=C/Nc3ccc(S(=O)(=O)Nc4ccc(O)cc4)cc3)c3ccccc3C2=O)cc1C", "targetSystem": "UniProt:P61073", "IC50 (µM)": 10}
{"recordSmiles": "C(=C\\N1CCCC1)/c1nnnn1-c1ccc2ccccc2c1", "targetSystem": "UniProt:P61073", "IC50 (µM)": 45}
{"recordSmiles": "CCC(=O)NCCNc1nc2cc(C)cc(C)c2cc1C#N", "targetSystem": "UniProt:P61073", "IC50 (µM)": 5}
{"recordSmiles": "CN(C)c1cccc(Nc2nc3ccccc3nc2NS(=O)(=O)c2ccc([N+](=O)[O-])cc2)c1", "targetSystem": "UniProt:P61073", "IC50 (µM)": 1}

====

Tested on: 300.19 cells
Assay: Cytotoxicity assay, propidium iodide based flow cytometry
Format: cell-based
Details: 50 μM test compound
Each record is given TRUE if its reported cytotoxicity, percentage of cells staining positive for PI is strictly below 50%. Records at or above 50% are given FALSE.

{"molecule": "CN(C)c1cccc(Nc2nc3ccccc3nc2NS(=O)(=O)c2ccc([N+](=O)[O-])cc2)c1 [Compound I-25]", "targetSystem": "300.19 cells", "labelClass": "TRUE"}
{"molecule": "CCc1ccc(OCCNc2cc(N3CCNC(C)C3)ccc2[N+](=O)[O-])cc1 (stereo not shown) [Compound I-4]", "targetSystem": "300.19 cells", "labelClass": "FALSE"}
{"molecule": "O=C(/C=C/c1ccccc1)NC(=S)Nc1cccc(-c2nc3ncccc3o2)c1 [Compound I-40]", "targetSystem": "300.19 cells", "labelClass": "FALSE"}
{"molecule": "CCOc1ccc(NCC(O)Cn2c3ccccc3c3ccccc32)cc1 (stereo not shown) [Compound I-16]", "targetSystem": "300.19 cells", "labelClass": "FALSE"}
{"molecule": "O=C(CO/N=C/c1ccccc1)N/N=C1\\C(=O)N(CN(Cc2ccccc2)Cc2ccccc2)c2ccccc21 [Compound I-38]", "targetSystem": "300.19 cells", "labelClass": "TRUE"}
{"molecule": "COc1ccc(NCc2nc3ccccc3n2CCOc2ccccc2C)cc1 [Compound I-7]", "targetSystem": "300.19 cells", "labelClass": "FALSE"}
{"molecule": "CCn1c2ccccc2c2ccc(Nc3nc4ccccc4nc3NS(=O)(=O)c3ccc(C)cc3)cc21 [Compound I-36]", "targetSystem": "300.19 cells", "labelClass": "TRUE"}
{"molecule": "C(=C\\N1CCCC1)/c1nnnn1-c1ccc2ccccc2c1 [Compound I-2]", "targetSystem": "300.19 cells", "labelClass": "FALSE"}
{"molecule": "COc1ccc(-c2cc(-c3ccccc3)cc3sc(/C(N)=N\\C#N)c(N)c23)cc1 [Compound I-44]", "targetSystem": "300.19 cells", "labelClass": "FALSE"}
{"molecule": "COc1cc(NCCCC(C)Nc2ccnc3cc4ccccc4cc23)c2ncccc2c1 (stereo not shown) [Compound I-9]", "targetSystem": "300.19 cells", "labelClass": "FALSE"}

====

Biological target: hCXCR4-GFP (Homo sapiens)
Assay: Intracellular calcium mobilization assay, hCXCR4-GFP expressing 300.19 cells, CXCL12
Type: cell-based
Set-up: IC50 of intracellular calcium mobilization, CXCR4; other: CXCL12-mediated; other: 50 μM test compound; normalized Δ fluorescence (CXCR4, intracellular calcium mobilization); other: 50 μM test compound, 60 seconds pretreatm
Conditions: CXCL12-mediated; read-out: IC50 of intracellular calcium mobilization, CXCR4
pIC50: −log10 of the molar value.
Entries and their pIC50 values follow.
measuredParameter: pIC50

{"compound": "CCOc1ccc(NCC(O)Cn2c3ccccc3c3ccccc32)cc1 (centres unmarked) [Compound I-16]", "targetSystem": "hCXCR4-GFP (Homo sapiens)", "reportedResult": 4.46}
{"compound": "COc1ccccc1C(=O)OCCNc1nc2cc(C)cc(C)c2cc1C#N [Compound I-12]", "targetSystem": "hCXCR4-GFP (Homo sapiens)", "reportedResult": 5.30}
{"compound": "COc1cc(NCCCC(C)Nc2ccnc3cc4ccccc4cc23)c2ncccc2c1 (centres unmarked) [Compound I-9]", "targetSystem": "hCXCR4-GFP (Homo sapiens)", "reportedResult": 6.00}
{"compound": "CCc1ccc(OCCNc2cc(N3CCNC(C)C3)ccc2[N+](=O)[O-])cc1 (centres unmarked) [Compound I-4]", "targetSystem": "hCXCR4-GFP (Homo sapiens)", "reportedResult": 4.35}
{"compound": "CCOc1ccc(NCC(O)Cn2c3ccccc3n3c(=O)cc(C)c(C#N)c23)cc1 (centres unmarked) [Compound I-15]", "targetSystem": "hCXCR4-GFP (Homo sapiens)", "reportedResult": 4.30}

====

Entries and their IC50 values follow.
Molecular target: hCXCR4-GFP (Homo sapiens, UniProt P61073)
Sequence (P61073 whole entry): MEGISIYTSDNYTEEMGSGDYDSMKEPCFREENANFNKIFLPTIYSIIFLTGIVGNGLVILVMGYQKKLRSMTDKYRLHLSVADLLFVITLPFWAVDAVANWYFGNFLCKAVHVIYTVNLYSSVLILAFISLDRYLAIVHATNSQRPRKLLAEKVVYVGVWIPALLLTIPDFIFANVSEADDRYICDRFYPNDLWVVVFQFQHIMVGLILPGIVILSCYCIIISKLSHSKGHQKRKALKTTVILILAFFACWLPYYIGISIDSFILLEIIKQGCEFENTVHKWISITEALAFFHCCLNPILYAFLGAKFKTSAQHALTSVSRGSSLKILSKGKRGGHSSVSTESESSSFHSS
Test: Chemotaxis assay, hCXCR4-GFP expressing 300.19 cells, CXCL12
Type: cell-based
Conditions: hCXCR4-GFP 300.19 cells, CXCL12

{"recordSmiles": "CN1C/C(=C/c2cccnc2)C(=O)/C(=C/c2cccnc2)C1", "unitsOfMeasure": "µM", "IC50": 20}
{"recordSmiles": "CCn1c2ccccc2c2ccc(Nc3nc4ccccc4nc3NS(=O)(=O)c3ccc(C)cc3)cc21", "unitsOfMeasure": "µM", "IC50": 1}
{"recordSmiles": "O=C(CO/N=C/c1ccccc1)N/N=C1\\C(=O)N(CN(Cc2ccccc2)Cc2ccccc2)c2ccccc21", "unitsOfMeasure": "µM", "IC50": 5}

====

Target: BLT1 (Homo sapiens)
Sequence (Q15722 whole entry, species assumed): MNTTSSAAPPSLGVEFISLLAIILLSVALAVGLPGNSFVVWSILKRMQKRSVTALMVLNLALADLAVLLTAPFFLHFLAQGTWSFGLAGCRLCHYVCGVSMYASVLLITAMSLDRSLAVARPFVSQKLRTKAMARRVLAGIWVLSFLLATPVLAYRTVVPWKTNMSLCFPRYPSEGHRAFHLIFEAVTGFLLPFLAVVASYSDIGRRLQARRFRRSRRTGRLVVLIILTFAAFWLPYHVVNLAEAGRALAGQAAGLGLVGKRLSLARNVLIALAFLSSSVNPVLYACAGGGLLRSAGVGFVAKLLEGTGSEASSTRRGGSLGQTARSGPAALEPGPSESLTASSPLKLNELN
Experiment: Chemotaxis assay, cells expressing BLT1, LTB4
Assay type: cell-based
Conditions: 50 μM test compound, LTB4-induced
Entries and their chemotaxis index (BLT1-mediated) values follow.
measuredParameter: chemotaxis index (BLT1-mediated)

{"recordSmiles": "CN1C/C(=C/c2cccnc2)C(=O)/C(=C/c2cccnc2)C1", "targetSystem": "BLT1 (Homo sapiens)", "measuredParameter": "chemotaxis index (BLT1-mediated)", "reportedResult": 0.045}
{"recordSmiles": "CCn1c2ccccc2c2ccc(Nc3nc4ccccc4nc3NS(=O)(=O)c3ccc(C)cc3)cc21", "targetSystem": "BLT1 (Homo sapiens)", "measuredParameter": "chemotaxis index (BLT1-mediated)", "reportedResult": 0.44}
{"recordSmiles": "O=C(CO/N=C/c1ccccc1)N/N=C1\\C(=O)N(CN(Cc2ccccc2)Cc2ccccc2)c2ccccc21", "targetSystem": "BLT1 (Homo sapiens)", "measuredParameter": "chemotaxis index (BLT1-mediated)", "reportedResult": 0.23}
{"recordSmiles": "CN(C)c1cccc(Nc2nc3ccccc3nc2NS(=O)(=O)c2ccc([N+](=O)[O-])cc2)c1", "targetSystem": "BLT1 (Homo sapiens)", "measuredParameter": "chemotaxis index (BLT1-mediated)", "reportedResult": 0.38}

====

Entries and their IC50 values follow.
System: MCF7 cells
Assay: MTT cell proliferation assay, MCF7
Type: cell-based, human
Settings: Homo sapiens, MCF7, 96 h, 4 days
measuredParameter: IC50 (µM)

{"molecule": "COc1cc(NCCCC(C)Nc2ccnc3cc4ccccc4cc23)c2ncccc2c1 (centres unmarked)", "measuredParameter": "IC50", "reportedResult": 5}
{"molecule": "CCn1c2ccccc2c2ccc(Nc3nc4ccccc4nc3NS(=O)(=O)c3ccc(C)cc3)cc21", "measuredParameter": "IC50", "reportedResult": 12.5}

====

Biological target: hCXCR4-GFP (Homo sapiens, UniProt P61073)
Experiment: Intracellular calcium mobilization assay, hCXCR4-GFP expressing 300.19 cells, CXCL12
Format: cell-based
Parameters: IC50 of intracellular calcium mobilization, CXCR4; other: CXCL12-mediated; other: 50 μM test compound; normalized Δ fluorescence (CXCR4, intracellular calcium mobilization); other: 50 μM test compound, 60 seconds pretreatm
Details: 50 μM test compound, 60 seconds pretreatment, optimized CXCL12 (AMD3100 concentration not given)
measuredParameter: normalized Δ fluorescence (CXCR4, intracellular calcium mobilization)

{"compound": "CCOc1ccc(NCC(O)Cn2c3ccccc3n3c(=O)cc(C)c(C#N)c23)cc1 (centres unmarked) [Compound I-15]", "reportedResult": 0.45}
{"compound": "O=C(Nc1ccc2ccc3ccc(NC(=O)c4ccccc4)nc3c2n1)c1ccccc1 [Compound I-46]", "reportedResult": 0.067}
{"compound": "c1cc(CN2CCCNCCNCCCNCC2)ccc1CN1CCCNCCNCCCNCC1 [AMD3100, reference compound]", "reportedResult": 0.51}
{"compound": "COc1ccc(-c2cc(-c3ccccc3)cc3sc(/C(N)=N\\C#N)c(N)c23)cc1 [Compound I-44]", "reportedResult": 0.29}
{"compound": "COC(=O)c1ccc(NC(=O)c2ccc3nc(-c4ccccn4)c(-c4ccccn4)nc3c2)cc1 [Compound I-39]", "reportedResult": 0.31}
